Please respond with reported TGI for every item in the list.
tested on: MCF7 breast; experiment: NCI tumour cell line growth inhibition, 48 h

So for Nc1ncn([C@@H]2S[C@H](CO)[C@@H](O)[C@@H]2F)c(=O)n1 , the logged TGI turned out to be > 100 µM

So for N#Cc1c(-c2ccc(Cl)cc2)c2c(nn3c4ccc5ccccc5c4nnc23)[nH]c1=O , the logged TGI turned out to be 14.8 µM

So for COc1ccc(-c2noc(C(=O)O)c2-c2cc(OC)c(OC)c(OC)c2)cc1 , the logged TGI turned out to be > 100 µM

So for C=CCOC(=O)N1c2ccc(O[Si](C)(C)C(C)(C)C)cc2[C@@]23O[C@@]24[C@@H]1C#C/C=C\C#C[C@]3(O)C(OC)(OC)C[C@@H]4C , the logged TGI turned out to be > 92.4 µM

---

test system: SK-MEL-28 melanoma; assay: NCI tumour cell line growth inhibition, 48 h
attribute.measured: GI50

So for Nc1nc2ccc(-c3nc4ccc5[nH]ncc5c4c4c3CCC4)cc2s1 , the logged GI50 turned out to be 0.638 µM

So for CCOc1ccccc1CCN=C1NC(=O)/C(=C/c2ccc3ncccc3c2)S1 , the logged GI50 turned out to be 5.22 µM

So for N#C[Se]Cc1cc(-c2ccccc2)n(-c2ccc(S(N)(=O)=O)cc2)n1 , the logged GI50 turned out to be 0.359 µM

So for CC1=C([Se]CC(OC(=O)CC[Se]c2ccccc2)C(=O)NC(C)(C)C)C(=O)c2ccccc2C1=O (configuration not stated) , the logged GI50 turned out to be 2.08 µM

So for CC1=C2C(=C[C@@](C)(CO)[C@@H]2OC(=O)N(C)CCN(C)C(=O)OC(C)(C)C)C(=O)[C@](C)(O)C12CC2 , the logged GI50 turned out to be 9.83 µM

So for c1cc[c]([Sn][c]2ccccc2)cc1 , the logged GI50 turned out to be 14.5 µM

So for CC(=O)c1c(C(F)(F)F)n([O-])c2ccccc2[n+]1=O , the logged GI50 turned out to be 3.48 µM

So for Cc1ccc2cnc(N)c(C#Cc3cc(C(=O)Nc4ccc(CN5CCN(C)CC5)c(C(F)(F)F)c4)cnc3C)c2c1 , the logged GI50 turned out to be 0.609 µM

So for Oc1cccc(Nc2nc3ccccc3c3occc23)c1 , the logged GI50 turned out to be 0.364 µM

So for O=S(=O)(Nc1ccc(Br)cc1)c1ccc(-c2cnc(C3CC3)o2)cc1 , the logged GI50 turned out to be 10 µM

So for Cc1cc([NH-])c([NH-])cc1C.[Cl][Pt+2][Cl] , the logged GI50 turned out to be 16.7 µM

So for CO/N=C(\COc1ccc2c(c1)[nH]c1ccccc12)c1ccc(OC)cc1 , the logged GI50 turned out to be 11.8 µM

---

test system: IGROV1 ovarian; experiment: NCI tumour cell line growth inhibition, 48 h
Please respond with reported log10 of TGI for every item in the list.
// units: µM (pre-log); metric: TGI; scale: log10

So for O=S1(=O)c2ccccc2Oc2ccc(C(/C=N/O)=N/O)cc21 , the logged log10 of TGI turned out to be 1.84

So for CC(C)/C(Cl)=N/OC(=O)Nc1ccc(Br)cc1 , the logged log10 of TGI turned out to be 1.43

So for Fc1ccc(C(OCCN2CCN(CCCc3ccccc3)CC2)c2ccc(F)cc2)cc1 , the logged log10 of TGI turned out to be 1.35

So for N#C[Se]Cc1cc(-c2ccccc2)n(-c2ccc(S(N)(=O)=O)cc2)n1 , the logged log10 of TGI turned out to be 0.03

So for O=C1/C(=C/c2ccc([N+](=O)[O-])cc2)CN(C(=O)CCN2CCC(=NO)CC2)C/C1=C\c1ccc([N+](=O)[O-])cc1 , the logged log10 of TGI turned out to be 0.44
